Data provenance is ChEMBL document CHEMBL5038619.

Biological target: Programmed cell death protein 1/Programmed cell death 1 ligand 1 (Homo sapiens)
Sequence (Q15116 whole entry): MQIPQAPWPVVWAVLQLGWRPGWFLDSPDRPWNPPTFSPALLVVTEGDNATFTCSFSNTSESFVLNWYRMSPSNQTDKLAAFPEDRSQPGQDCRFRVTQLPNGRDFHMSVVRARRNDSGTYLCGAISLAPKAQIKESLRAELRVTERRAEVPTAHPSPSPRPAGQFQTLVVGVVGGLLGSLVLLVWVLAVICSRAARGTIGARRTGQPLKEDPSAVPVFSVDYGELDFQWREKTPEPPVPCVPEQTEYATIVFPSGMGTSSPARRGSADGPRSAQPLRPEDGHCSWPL
Sequence (Q9NZQ7 whole entry): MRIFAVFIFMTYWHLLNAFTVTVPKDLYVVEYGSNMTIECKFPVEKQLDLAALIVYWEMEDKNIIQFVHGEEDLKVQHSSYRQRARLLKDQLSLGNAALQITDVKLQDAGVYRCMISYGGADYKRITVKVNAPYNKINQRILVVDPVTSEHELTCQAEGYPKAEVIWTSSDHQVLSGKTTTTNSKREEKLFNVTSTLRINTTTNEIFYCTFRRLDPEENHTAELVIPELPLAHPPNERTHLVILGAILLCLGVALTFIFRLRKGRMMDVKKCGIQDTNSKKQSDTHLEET
Test: Inhibition of PD-1/PDL-1 (unknown origin) binding
Assay type: protein-complex assay
Quick rule for you: IC50 under 10 nM gets T, anything else gets F.

Challenge: Lab note: IC50 threshold 10 nM. Does this compound come in strictly under it? Cc1c(COc2ccc(CNCCO)n3cnnc23)cccc1-c1ccc2c(c1)OCCO2
Response given: F

Challenge: Is the reported IC50 for O=C(O)[C@@H]1CCCCN1Cc1ccc(OCc2cccc(-c3ccccc3)c2Br)c(Br)c1 strictly below 10 nM?
Response given: F

Challenge: Please state whether IC50 is below 10 nM for Cc1c(COc2ccc(CN3CCCC[C@H]3C(=O)NCCN)c(OCc3cccc(C#N)c3)c2)cccc1-c1ccccc1
Response given: T

Challenge: In plain terms, does COc1cc(C(=O)N2CCC3C(c4ccccc4)=CC=CC32)ccc1CNCCO (stereo not given) come in under 10 nM for IC50?
Response given: F

Challenge: Quick check: does Cc1c(COc2ccc(CN[C@H](CO)C(=O)O)c(OCc3cncc(C#N)c3)n2)cccc1-c1ccccc1 have IC50 under 10 nM?
Response given: F
